- study.target: PARP2 (Homo sapiens, UniProt Q9UGN5)
- Construct: made in house
- Sequence (Q9UGN5 whole entry): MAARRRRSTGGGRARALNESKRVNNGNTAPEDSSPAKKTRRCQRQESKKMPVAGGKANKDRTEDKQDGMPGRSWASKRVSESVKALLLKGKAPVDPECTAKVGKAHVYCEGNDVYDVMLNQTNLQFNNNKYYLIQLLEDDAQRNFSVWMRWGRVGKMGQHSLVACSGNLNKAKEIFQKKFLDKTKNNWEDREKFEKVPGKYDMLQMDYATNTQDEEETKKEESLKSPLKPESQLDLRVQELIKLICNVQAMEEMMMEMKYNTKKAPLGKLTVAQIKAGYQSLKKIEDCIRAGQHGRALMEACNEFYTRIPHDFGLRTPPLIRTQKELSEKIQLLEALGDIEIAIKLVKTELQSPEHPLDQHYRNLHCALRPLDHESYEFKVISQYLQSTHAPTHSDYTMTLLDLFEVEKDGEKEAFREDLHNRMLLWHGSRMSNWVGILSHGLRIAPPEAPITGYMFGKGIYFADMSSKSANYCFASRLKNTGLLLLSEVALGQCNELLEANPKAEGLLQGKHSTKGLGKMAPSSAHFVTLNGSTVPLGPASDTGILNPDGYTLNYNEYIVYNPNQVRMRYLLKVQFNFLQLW
- run.description: Biochemical fluorescent polarization (FP) assay, displacement of PARPi-FL, PARP2
- Format: binding
- assay.conditions: 20 nM protein, 3 nM PARPi-FL, 4 h at room temperature; read-out: FP PARP2 pIC50 (converted)
parameter: IC50 (µM)

(P) CCc1cc2ncc(CN3CCN(c4ccc(F)nc4)CC3)cc2[nH]c1=O [Example 34]
(Q) Cc1cc2ncc(CN3CCN(c4ccc(C#N)c(F)c4)CC3)cc2[nH]c1=O [Example 44]
Between item P and item Q , which reported IC50 is smaller? // return label of chosen record
Q
